Reference source: ChEMBL document CHEMBL1127615

- study-system: Receptor tyrosine-protein kinase erbB-2 (Homo sapiens, UniProt P04626)
- Sequence (P04626 whole entry): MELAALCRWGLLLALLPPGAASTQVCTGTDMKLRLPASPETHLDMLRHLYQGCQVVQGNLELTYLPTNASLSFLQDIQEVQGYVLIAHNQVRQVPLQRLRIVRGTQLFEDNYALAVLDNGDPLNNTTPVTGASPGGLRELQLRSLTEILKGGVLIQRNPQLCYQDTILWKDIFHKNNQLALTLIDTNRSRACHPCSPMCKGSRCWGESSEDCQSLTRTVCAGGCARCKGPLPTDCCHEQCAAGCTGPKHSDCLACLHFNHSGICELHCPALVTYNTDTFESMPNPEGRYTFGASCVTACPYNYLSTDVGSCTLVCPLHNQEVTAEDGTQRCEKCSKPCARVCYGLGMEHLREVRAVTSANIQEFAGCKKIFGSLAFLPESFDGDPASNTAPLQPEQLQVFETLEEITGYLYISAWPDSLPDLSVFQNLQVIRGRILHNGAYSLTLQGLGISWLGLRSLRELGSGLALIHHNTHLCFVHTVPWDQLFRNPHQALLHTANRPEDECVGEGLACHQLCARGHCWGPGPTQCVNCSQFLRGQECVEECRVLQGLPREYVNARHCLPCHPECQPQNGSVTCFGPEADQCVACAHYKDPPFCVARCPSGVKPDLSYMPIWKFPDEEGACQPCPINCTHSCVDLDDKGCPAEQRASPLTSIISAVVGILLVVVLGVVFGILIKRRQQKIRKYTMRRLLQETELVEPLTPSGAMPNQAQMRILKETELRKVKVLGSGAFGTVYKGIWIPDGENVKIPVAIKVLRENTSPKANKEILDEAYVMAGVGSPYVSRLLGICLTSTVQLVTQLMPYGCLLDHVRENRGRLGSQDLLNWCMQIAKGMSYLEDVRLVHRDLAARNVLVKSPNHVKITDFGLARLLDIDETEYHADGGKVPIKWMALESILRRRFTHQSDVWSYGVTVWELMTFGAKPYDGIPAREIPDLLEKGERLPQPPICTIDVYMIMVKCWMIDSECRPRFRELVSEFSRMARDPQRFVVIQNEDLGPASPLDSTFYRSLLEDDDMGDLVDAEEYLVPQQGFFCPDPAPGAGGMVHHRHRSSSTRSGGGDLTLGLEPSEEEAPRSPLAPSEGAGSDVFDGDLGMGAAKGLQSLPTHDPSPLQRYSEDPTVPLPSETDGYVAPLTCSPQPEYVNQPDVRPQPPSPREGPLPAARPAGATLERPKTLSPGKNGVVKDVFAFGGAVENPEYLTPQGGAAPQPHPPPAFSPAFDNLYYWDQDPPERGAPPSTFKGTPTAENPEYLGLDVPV
pIC50: −log10 of the molar value.
endpoint-name: pIC50

Find pIC50 for COc1cc(OC)c2cc(-c3ccncc3)cnc2c1 on Receptor tyrosine-protein kinase erbB-2 (Homo sapiens, UniProt P04626) and write it down. < 5.00

* * *

- study-system: Platelet-derived growth factor receptor (Homo sapiens, UniProt P09619+P16234)
- assay-remarks: Inhibition of Platelet-derived growth factor receptor tyrosine kinase
endpoint-name: pIC50
Expect pIC50 as a plain number equal to -log10 of the molar concentration.

Clc1ccc2cc(-c3ccncc3)cnc2c1 | 6.52
c1ccc2ncc(-c3ccncc3)cc2c1 | 5.82
COc1cc2ncc(-c3ccncc3)cc2c(OC)c1OC | 6.40

State, in one line, measured pIC50 of Oc1cc(O)c2cc(-c3ccncc3)cnc2c1 5.89
